molecular target: Factor XIIIa (activated FXIII) (Homo sapiens, UniProt P00488); construct: purchased Enzyme Research Laboratories, Ltd; experiment: Inactivation of purified Factor XIIIa (monodansylcadaverine incorporation into dimethylcasein, fluorescence); assay type: biochemical; conditions: purified activated FXIII; 50% enzyme inactivation after 5-min incubation with inhibitor at 37° C. in the absence of substrate; read-out: FXIIIa (IC50 in μM)
Sequence (P00488 39-732 limits assumed): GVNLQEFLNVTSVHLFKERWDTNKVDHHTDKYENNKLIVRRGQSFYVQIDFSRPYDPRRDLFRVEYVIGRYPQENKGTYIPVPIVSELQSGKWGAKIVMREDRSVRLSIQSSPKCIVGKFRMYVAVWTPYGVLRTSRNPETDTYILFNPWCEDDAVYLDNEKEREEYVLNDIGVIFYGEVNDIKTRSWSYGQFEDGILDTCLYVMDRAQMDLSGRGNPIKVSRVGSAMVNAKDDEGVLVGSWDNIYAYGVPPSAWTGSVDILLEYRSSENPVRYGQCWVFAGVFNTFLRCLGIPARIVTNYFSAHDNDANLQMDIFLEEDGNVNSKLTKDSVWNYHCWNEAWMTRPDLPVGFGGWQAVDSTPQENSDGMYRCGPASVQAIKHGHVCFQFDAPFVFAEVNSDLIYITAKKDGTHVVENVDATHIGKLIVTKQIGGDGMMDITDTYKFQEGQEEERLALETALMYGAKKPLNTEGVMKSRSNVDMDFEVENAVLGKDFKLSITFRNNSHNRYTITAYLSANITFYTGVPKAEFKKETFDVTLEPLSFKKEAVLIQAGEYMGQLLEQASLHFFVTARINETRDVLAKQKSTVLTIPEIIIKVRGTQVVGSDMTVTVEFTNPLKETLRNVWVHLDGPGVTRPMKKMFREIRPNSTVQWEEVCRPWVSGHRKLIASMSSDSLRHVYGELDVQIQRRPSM

>  <QUERY SMILES>
COc1ccc(OC)c(S(=O)(=O)NCCCCCCNc2nsc3nccn23)c1

>  <UNITS TEXT>
µM

>  <VALUE MODIFIER>
>

>  <IC50>
5

$$$$
>  <QUERY SMILES>
CN(CCCCCCNc1nsc2nccn12)S(=O)(=O)c1ccccc1[N+](=O)[O-]

>  <UNITS TEXT>
µM

>  <VALUE MODIFIER>
=

>  <IC50>
1.3

$$$$
>  <QUERY SMILES>
O=S(=O)(NCCCCCCNc1nsc2nccn12)c1cccc(C(F)(F)F)c1

>  <UNITS TEXT>
µM

>  <VALUE MODIFIER>
=

>  <IC50>
4.7

$$$$
>  <QUERY SMILES>
N#Cc1ccc(S(=O)(=O)NCCCCCCNc2nsc3nccn23)cc1

>  <UNITS TEXT>
µM

>  <VALUE MODIFIER>
=

>  <IC50>
1.6

$$$$
>  <QUERY SMILES>
COc1ccc(S(=O)(=O)NCCCCCCNc2nsc3nccn23)cc1

>  <UNITS TEXT>
µM

>  <VALUE MODIFIER>
=

>  <IC50>
1.4

$$$$
>  <QUERY SMILES>
O=S(=O)(NCCCCCCNc1nsc2nccn12)c1ccc(F)cc1F

>  <UNITS TEXT>
µM

>  <VALUE MODIFIER>
=

>  <IC50>
1.4

$$$$
